# test.protocol: Solubility of component (A) in monomers and solvents, visual observation
# Type: physicochemical
# condition.details: 0.1 g in toluene (1.0 g), visual
property.name: Solubility Toluene

# smiles.structure, Solubility Toluene
rows = [
    ("S=C(c1ccc(-c2ccccc2)cc1)c1ccc(-c2ccccc2)cc1", "Δ"),
    ("Cc1ccc(Sc2ccc(C(=O)c3ccc(Sc4ccc(C)cc4C)cc3)cc2)c(C)c1", "○"),
    ("Cc1ccc(C)c(Sc2ccc(C(=O)c3ccc(Sc4cc(C)ccc4C)cc3)cc2)c1", "⊚"),
    ("Cc1cccc(Sc2ccc(C(=O)c3ccc(Sc4cccc(C)c4)cc3)cc2)c1", "⊚"),
    ("Cc1cc(C(C)(C)C)ccc1Sc1ccc(C(=O)c2ccc(Sc3ccc(C(C)(C)C)cc3C)cc2)cc1", "⊚"),
]

# per-item lookup of Solubility Toluene; items listed below
1. CC(C)(C)c1ccc(Sc2ccc(C(=O)c3ccc(Sc4ccc(C(C)(C)C)cc4)cc3)cc2)cc1
2. CC(C)c1ccc(Sc2ccc(C(=O)c3ccc(Sc4ccc(C(C)C)cc4)cc3)cc2)cc1

⊚
⊚
